target: AHR (Homo sapiens, UniProt P35869); construct: U87 MG glioblastoma cells (ATCC #HTB-14) endogenously expressing AHR; endogenous in cells; host or cells: U87 MG glioblastoma cells (ATCC #HTB-14); test: In vitro assay 1: antagonism in human cell line (AHR transactivation, firefly luciferase reporter, kynurenic acid prestimulated); format: cell-based; conditions: AHR Antagonism Human IC50 [M]
Sequence (P35869 11-848): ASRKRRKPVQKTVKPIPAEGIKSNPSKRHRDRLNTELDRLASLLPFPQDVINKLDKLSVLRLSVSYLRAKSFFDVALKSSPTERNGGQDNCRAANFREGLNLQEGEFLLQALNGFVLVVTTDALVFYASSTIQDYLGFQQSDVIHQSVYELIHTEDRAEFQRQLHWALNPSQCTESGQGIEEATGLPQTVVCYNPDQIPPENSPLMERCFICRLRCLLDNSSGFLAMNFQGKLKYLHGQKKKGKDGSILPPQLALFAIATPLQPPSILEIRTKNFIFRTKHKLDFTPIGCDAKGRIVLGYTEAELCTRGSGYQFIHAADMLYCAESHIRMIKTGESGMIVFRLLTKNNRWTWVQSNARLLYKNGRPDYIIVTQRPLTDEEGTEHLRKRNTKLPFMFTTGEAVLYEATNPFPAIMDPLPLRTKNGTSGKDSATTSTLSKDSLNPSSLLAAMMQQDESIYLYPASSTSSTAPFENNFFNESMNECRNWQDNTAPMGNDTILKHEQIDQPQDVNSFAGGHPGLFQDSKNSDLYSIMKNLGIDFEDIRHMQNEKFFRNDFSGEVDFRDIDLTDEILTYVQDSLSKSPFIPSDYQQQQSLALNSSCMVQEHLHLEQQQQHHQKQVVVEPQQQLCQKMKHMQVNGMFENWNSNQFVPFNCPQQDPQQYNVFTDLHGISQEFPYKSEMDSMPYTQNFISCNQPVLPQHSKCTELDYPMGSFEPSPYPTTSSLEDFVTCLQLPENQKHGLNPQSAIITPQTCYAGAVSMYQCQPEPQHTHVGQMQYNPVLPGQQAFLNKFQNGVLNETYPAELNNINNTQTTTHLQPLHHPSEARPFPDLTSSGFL
Measured metric: IC50 (M)
Give your result in M as a bare value.

Annotate the compound "Cn1cc(-c2nc3c4cccc(C(F)(F)F)c4nc(N[C@@H]4CNCCNC4=O)n3n2)cn1" with its measured IC50. 6.84e-09

Item "COc1ccc(-c2nc3c4c(C5CNC5)cccc4nc(N[C@@H]4CCCCNC4=O)n3n2)cc1" : provide IC50 6.34e-06

Check the records and state IC50 for "Cc1ccc2nc(N[C@@H]3CCCCNC3=O)n3nc(-c4cnn(C)c4)nc3c2c1C(F)F" 3.39e-06

Identify measured IC50 corresponding to "COc1ccc(-c2nc3c4cc(C#N)ccc4nc(N[C@@H]4CCCCNC4=O)n3n2)cc1" 4.44e-09

Fill in reported IC50 for this entry: "CC[C@H](Nc1nc2ccccc2c2nc(-c3ccc(OC)cc3)nn12)C(N)=O" 6.43e-08

Output IC50 of "Cc1nnc(-c2nc3c4ccccc4nc(N[C@@H]4CCCCNC4=O)n3n2)o1" 5.37e-07

Recall and state the measured IC50 for "COc1cccc2c1nc(N[C@@H]1CCCCNC1=O)n1nc(-c3cnn(C4CC4)c3)nc21" . 5.4e-08

Input "COc1cccc(-c2nc3c4ccc(F)cc4nc(N[C@H]4CCCCNC4=O)n3n2)c1" , output reported IC50. 1.97e-07

Supply IC50 value. Item: "O=C1NCCNC[C@H]1Nc1nc2ccccc2c2nc(-c3cccc(F)c3)nn12" 7.39e-08

Respond only with IC50 recorded for "COC(=O)c1cccc2c1nc(N[C@@H]1CCCCNC1=O)n1nc(-c3ccc(OC)cc3)nc21" 1.43e-08

Specify reported IC50 for the compound shown: "O=C1NCCCC[C@H]1Nc1nc2ccccc2c2nc(-c3ccco3)nn12" 4.55e-09

For "COc1ccc(-c2nc3c4ccccc4nc(N[C@@H]4CCNC4=O)n3n2)cc1" , write its IC50. 1.59e-08

Let me know recorded IC50 for "CC[C@@H](Nc1nc2ccccc2c2nc(-c3cnccn3)nn12)C(N)=O" , thanks. 5.61e-07

Let me know recorded IC50 for CS(=N)(=O)c1ccc(-c2nc3c4ccccc4nc(N[C@@H]4CCCCNC4=O)n3n2)cc1 (single isomer, unassigned) [Example 308] , thanks. 1.1e-07

Reference source: patent US20230113037A1
